- System: DU-145 prostate
- TEST_DESCRIPTION: NCI tumour cell line growth inhibition, 48 h
MEASUREMENT_NAME: TGI (µM)

CC(C)[Si]1(C(C)C)OCC2OC(N3C(=O)NC(=O)C[C@@H]3C(O)c3ccccc3)CC2O[Si](C(C)C)(C(C)C)O1 (stereo not given in full) :: 26.5
Clc1ccc(/C=C2\CCCC3C2=Nc2ccccc2NC3c2ccc(Cl)cc2)cc1 (stereo not given) :: 23.9

###

- System: UO-31 renal
- TEST_DESCRIPTION: NCI tumour cell line growth inhibition, 48 h
Below, each entry is listed with its recorded TGI.
MEASUREMENT_NAME: TGI (µM)

Clc1ccc(C2c3ccccc3-c3nccn32)c(Cl)c1 (stereo not given) :: 23.3
CC1CN1C1=CC(=O)c2c(c(CO)cn2C)C1=O (stereo not given) :: 0.386
